TARGET OF ASSAY: Neuronal acetylcholine receptor; alpha4/beta2 (Rattus norvegicus, UniProt P09483+P12390)
Sequence (P09483 whole entry): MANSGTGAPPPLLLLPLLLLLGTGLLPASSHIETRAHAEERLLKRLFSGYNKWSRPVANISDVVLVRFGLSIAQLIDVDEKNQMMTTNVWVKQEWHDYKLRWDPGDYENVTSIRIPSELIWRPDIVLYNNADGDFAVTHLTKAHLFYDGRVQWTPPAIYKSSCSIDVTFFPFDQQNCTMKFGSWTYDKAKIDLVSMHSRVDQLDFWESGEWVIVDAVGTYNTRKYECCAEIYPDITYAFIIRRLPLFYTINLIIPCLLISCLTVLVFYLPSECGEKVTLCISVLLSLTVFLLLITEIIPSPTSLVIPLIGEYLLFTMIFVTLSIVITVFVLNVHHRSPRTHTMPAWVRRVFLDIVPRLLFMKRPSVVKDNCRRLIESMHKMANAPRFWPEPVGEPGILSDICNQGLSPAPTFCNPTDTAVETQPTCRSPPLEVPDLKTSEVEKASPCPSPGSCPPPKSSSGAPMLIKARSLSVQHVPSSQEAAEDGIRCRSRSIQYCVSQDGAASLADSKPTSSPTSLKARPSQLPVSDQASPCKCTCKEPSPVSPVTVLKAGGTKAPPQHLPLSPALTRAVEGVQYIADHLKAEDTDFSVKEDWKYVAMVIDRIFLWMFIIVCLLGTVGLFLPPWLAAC
Sequence (P12390 whole entry): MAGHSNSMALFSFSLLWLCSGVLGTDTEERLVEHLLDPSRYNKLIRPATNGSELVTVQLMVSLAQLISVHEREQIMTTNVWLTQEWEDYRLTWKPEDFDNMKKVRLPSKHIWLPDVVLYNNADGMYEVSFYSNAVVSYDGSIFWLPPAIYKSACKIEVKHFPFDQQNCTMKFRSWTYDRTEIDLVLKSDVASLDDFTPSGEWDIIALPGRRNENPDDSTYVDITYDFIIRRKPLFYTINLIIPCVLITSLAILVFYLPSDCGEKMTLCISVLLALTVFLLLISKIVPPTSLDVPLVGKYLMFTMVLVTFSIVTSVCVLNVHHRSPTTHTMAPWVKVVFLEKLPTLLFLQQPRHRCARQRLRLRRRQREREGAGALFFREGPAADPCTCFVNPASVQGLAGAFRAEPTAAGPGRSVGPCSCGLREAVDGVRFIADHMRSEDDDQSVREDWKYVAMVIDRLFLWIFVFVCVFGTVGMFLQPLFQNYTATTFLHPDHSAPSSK
TEST METHOD NOTES: Displacement of (+/-)-[3H]epibatidine from alpha4beta2 nicotinic acetylcholine receptor in rat brain cortex membrane homogenates
Assay type: cell membranes
Kindly apply the following: satisfied if Ki is less than 0.8 µM, not satisfied in every other case.

- O=c1cccc2n1C[C@H]1C[C@@H]2CN(CCc2ccccn2)C1: not satisfied
- CC(=O)CCN1C[C@@H]2C[C@H](C1)c1cccc(=O)n1C2: satisfied
- O=c1cccc2n1C[C@@H]1CNC[C@H]2C1: satisfied
- O=c1cccc2n1C[C@H]1C[C@@H]2CN(Cc2cccnc2)C1: not satisfied
- CC(=O)CCCN1C[C@@H]2C[C@H](C1)c1cccc(=O)n1C2: satisfied
- O=c1cccc2n1C[C@H]1C[C@@H]2CN(CCc2ccc(F)cc2)C1: not satisfied
- NC(=O)CCN1C[C@@H]2C[C@H](C1)c1cccc(=O)n1C2: satisfied
- O=c1cccc2n1C[C@H]1C[C@@H]2CN(Cc2ccncc2)C1: satisfied
- O=c1cccc2n1C[C@H]1C[C@@H]2CN(CCCc2cccnc2)C1: satisfied

Answer whether the molecule "O=c1cccc2n1C[C@H]1C[C@@H]2CN(CCc2ccccc2)C1" has Ki strictly less than 0.8 µM satisfied

###

TARGET OF ASSAY: Neuronal acetylcholine receptor subunit alpha-7 (Rattus norvegicus, UniProt Q05941)
Sequence (Q05941 whole entry): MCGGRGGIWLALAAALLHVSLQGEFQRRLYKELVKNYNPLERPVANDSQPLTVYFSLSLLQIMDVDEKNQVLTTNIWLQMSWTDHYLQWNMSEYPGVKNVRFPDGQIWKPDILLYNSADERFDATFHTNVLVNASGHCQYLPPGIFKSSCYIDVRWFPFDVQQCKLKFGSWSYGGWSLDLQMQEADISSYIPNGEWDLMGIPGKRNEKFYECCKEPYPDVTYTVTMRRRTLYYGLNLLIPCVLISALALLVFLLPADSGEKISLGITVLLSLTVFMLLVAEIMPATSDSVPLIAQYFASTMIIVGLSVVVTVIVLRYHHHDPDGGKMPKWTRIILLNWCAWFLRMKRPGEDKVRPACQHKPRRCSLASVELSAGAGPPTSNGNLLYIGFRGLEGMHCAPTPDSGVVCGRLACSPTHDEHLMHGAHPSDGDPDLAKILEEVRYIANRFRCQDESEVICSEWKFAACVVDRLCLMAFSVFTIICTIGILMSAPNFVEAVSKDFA
TEST METHOD NOTES: Displacement of [125I]alpha-bungarotoxin from alpha7 nicotinic acetylcholine receptor in rat brain cortex membrane homogenates
Format: cell membranes
PROPERTY: Ki

* O=C(CCN1C[C@@H]2C[C@H](C1)c1cccc(=O)n1C2)c1ccccc1 | 0.55 µM
* Cc1ccc(CCCN2C[C@@H]3C[C@H](C2)c2cccc(=O)n2C3)cc1 | > 50 µM
* CCCCCN1C[C@@H]2C[C@H](C1)c1cccc(=O)n1C2 | 39.7 µM
* O=c1cccc2n1C[C@H]1C[C@@H]2CN(CCc2ccncc2)C1 | 4.2 µM
* O=c1cccc2n1C[C@@H]1CNC[C@H]2C1 | 0.331 µM

For each listed entry, give its Ki.
1. O=c1cccc2n1C[C@H]1C[C@@H]2CN(Cc2ccncc2)C1
2. O=C(CCCN1C[C@@H]2C[C@H](C1)c1cccc(=O)n1C2)c1ccccc1
3. O=c1cccc2n1C[C@H]1C[C@@H]2CN(CCCc2ccccc2)C1
4. O=C(CCCN1C[C@@H]2C[C@H](C1)c1cccc(=O)n1C2)c1ccc(F)cc1
5. O=c1cccc2n1C[C@H]1C[C@@H]2CN(CCCc2cccnc2)C1

> 100 µM
> 50 µM
13 µM
> 50 µM
> 100 µM

###

TARGET OF ASSAY: Neuronal acetylcholine receptor; alpha4/beta2 (Rattus norvegicus, UniProt P09483+P12390)
TEST METHOD NOTES: Displacement of (+/-)-[3H]epibatidine from alpha4beta2 nicotinic acetylcholine receptor in rat brain cortex membrane homogenates
Assay type: cell membranes
Kindly apply the following: met if Ki is less than 700 nM, not met in every other case.

Answer whether the molecule "O=C(CCN1C[C@@H]2C[C@H](C1)c1cccc(=O)n1C2)c1ccccc1" has Ki strictly less than 700 nM met

Answer whether the molecule "O=C(CN1C[C@@H]2C[C@H](C1)c1cccc(=O)n1C2)c1ccccc1" has Ki strictly less than 700 nM met

Answer whether the molecule "O=C(CN1C[C@@H]2C[C@H](C1)c1cccc(=O)n1C2)c1ccc(F)cc1" has Ki strictly less than 700 nM met

Answer whether the molecule "Cc1ccc(CCCN2C[C@@H]3C[C@H](C2)c2cccc(=O)n2C3)cc1" has Ki strictly less than 700 nM not met

Answer whether the molecule "O=c1cccc2n1C[C@H]1C[C@@H]2CN(CCCc2ccccc2)C1" has Ki strictly less than 700 nM met

Answer whether the molecule "Cc1ccc(CCN2C[C@@H]3C[C@H](C2)c2cccc(=O)n2C3)cc1" has Ki strictly less than 700 nM not met

Answer whether the molecule "O=c1cccc2n1C[C@H]1C[C@@H]2CN(CCCc2ccc(F)cc2)C1" has Ki strictly less than 700 nM not met
